Property: binding signal; scope: individual sequences
- System Name: HNF4alpha2 (COS-7 nuclear extract) (Homo sapiens, UniProt P41235 1-474)
- Sequence: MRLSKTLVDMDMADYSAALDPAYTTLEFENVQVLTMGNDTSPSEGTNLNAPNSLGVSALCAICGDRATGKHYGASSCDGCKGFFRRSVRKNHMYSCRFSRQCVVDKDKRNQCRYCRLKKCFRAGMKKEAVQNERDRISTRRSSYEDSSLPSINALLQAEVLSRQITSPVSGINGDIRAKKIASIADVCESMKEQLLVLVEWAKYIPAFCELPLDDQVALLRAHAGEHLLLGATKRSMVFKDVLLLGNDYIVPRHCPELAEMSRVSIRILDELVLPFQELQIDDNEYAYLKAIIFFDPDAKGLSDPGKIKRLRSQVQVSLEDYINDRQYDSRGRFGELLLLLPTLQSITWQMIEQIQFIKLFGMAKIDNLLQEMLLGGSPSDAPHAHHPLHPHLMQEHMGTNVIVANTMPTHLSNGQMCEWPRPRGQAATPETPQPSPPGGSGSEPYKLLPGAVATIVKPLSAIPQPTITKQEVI
- Measurement Notes: protein-binding microarray; COS-7 nuclear extract on double-stranded Agilent 4x180k PBM; binding buffer, salt, pH and temperature not given in the material; high values mean tight binding
- Assay Setup: chain copies: 2; label: 3' end of strand 1 on the slide; dsDNA, one strand shown
In all, about 18,000 sequences were measured (“log2 normalized intensity”: median about 0.39, highest 2% from about 6.6 on). Shown is part of a subset that was picked to be rich in the highest values.
Your answer should be a plain number; it is taken to be in log2 normalized intensity.

Need binding signal of CACAGGTAAACATTTGCCTTTAGGGCCCCCGCCTAGGGAGATTAGAGTATCGGTCGA , thanks.
2.56

Then this sequence: GGTTGCCCTAGTGACTCTAGGAACCTTTCTGCCTAGGGAGATTAGAGTATCGGTCGA
-0.0376

Another sequence: AATGATTGCATAATCTGGCTCCAAAGTCTAGCCTAGGGAGATTAGAGTATCGGTCGA
2.2

Queued: TCTCGGTCAAACCTTTGACCCTTTATAATCGCCTAGGGAGATTAGAGTATCGGTCGA
5.95

Follow-up item: TCTCAAAAGTTTTTCCCTTCTGTTAGAATGGCCTAGGGAGATTAGAGTATCGGTCGA
-0.592

Another sequence to check: CCTTGGCTGTGTGACTCACCTTTGCTCTGAGCCTAGGGAGATTAGAGTATCGGTCGA
3.71

***
Look up binding signal: TGCACATTCCCTCCAGCAGGGGATGCCCTTGCCTAGGGAGATTAGAGTATCGGTCGA
2.38
